Each entry below carries its measured Ki, system: UniProt Q13464.
Sequence (Q13464 whole entry): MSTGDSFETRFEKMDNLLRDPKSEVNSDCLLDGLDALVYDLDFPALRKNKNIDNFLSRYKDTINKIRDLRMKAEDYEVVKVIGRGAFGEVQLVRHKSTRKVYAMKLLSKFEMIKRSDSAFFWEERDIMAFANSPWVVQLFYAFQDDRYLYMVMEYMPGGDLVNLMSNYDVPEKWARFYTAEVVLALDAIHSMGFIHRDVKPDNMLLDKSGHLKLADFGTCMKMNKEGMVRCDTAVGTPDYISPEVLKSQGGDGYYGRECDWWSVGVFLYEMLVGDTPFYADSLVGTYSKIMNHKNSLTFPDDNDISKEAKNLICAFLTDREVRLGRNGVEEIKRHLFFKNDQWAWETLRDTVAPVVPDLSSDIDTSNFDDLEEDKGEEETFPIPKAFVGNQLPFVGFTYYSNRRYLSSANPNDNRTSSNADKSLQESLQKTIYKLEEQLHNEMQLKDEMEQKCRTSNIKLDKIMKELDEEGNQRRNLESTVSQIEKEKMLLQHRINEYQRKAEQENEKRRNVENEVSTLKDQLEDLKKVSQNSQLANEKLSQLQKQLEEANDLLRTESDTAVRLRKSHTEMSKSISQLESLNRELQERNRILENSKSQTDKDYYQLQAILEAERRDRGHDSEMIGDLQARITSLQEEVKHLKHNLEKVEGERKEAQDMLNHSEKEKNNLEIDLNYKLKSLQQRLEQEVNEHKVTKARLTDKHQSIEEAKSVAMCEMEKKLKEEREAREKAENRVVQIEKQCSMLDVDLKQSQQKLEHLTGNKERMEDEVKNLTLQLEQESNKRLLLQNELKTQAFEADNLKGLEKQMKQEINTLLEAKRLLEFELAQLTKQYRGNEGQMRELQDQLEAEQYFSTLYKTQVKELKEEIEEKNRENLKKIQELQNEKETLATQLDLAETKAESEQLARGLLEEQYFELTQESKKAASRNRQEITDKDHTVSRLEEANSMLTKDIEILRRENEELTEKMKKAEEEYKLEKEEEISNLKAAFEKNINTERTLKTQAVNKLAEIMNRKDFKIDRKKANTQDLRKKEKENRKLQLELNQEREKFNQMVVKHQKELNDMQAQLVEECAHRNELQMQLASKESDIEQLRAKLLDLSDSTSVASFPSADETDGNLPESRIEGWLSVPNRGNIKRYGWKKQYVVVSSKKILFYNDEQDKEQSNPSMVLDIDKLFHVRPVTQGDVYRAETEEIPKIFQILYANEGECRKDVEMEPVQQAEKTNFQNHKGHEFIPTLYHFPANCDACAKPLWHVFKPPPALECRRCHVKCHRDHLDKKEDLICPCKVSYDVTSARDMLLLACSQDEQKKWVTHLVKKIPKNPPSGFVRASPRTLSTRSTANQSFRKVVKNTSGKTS

Cc1c[nH]c2nccc(Oc3ccc(C[C@H](N)C(=O)NC4CCN(C)CC4(C)C)cc3F)c12 (single isomer, unassigned) = < 3 nM
Cc1c[nH]c2nccc(Oc3ccc(C[C@H](N)C(=O)NC4CCN(CC(C)C)CC4)cc3F)c12 = < 3 nM
Cc1c[nH]c2nccc(Oc3ccc(C[C@H](N)C(=O)N4CCc5cncnc5C4)cc3F)c12 = < 3 nM

Each compound below has a recorded value; state its Ki.
1. Cc1c[nH]c2nccc(Oc3ccc(C[C@H](N)C(=O)N4CCc5cnccc5C4)cc3F)c12
2. Cc1c[nH]c2nccc(Oc3ccc(C[C@H](N)C(=O)N(C)C)cc3F)c12

Return:
["< 3 nM", "3 to 30 nM"]

* * *

Let's go through some pKi measurements on ROCK 2 (Rho kinase 2) (Homo sapiens, UniProt O75116) together.
Sequence (O75116 whole entry): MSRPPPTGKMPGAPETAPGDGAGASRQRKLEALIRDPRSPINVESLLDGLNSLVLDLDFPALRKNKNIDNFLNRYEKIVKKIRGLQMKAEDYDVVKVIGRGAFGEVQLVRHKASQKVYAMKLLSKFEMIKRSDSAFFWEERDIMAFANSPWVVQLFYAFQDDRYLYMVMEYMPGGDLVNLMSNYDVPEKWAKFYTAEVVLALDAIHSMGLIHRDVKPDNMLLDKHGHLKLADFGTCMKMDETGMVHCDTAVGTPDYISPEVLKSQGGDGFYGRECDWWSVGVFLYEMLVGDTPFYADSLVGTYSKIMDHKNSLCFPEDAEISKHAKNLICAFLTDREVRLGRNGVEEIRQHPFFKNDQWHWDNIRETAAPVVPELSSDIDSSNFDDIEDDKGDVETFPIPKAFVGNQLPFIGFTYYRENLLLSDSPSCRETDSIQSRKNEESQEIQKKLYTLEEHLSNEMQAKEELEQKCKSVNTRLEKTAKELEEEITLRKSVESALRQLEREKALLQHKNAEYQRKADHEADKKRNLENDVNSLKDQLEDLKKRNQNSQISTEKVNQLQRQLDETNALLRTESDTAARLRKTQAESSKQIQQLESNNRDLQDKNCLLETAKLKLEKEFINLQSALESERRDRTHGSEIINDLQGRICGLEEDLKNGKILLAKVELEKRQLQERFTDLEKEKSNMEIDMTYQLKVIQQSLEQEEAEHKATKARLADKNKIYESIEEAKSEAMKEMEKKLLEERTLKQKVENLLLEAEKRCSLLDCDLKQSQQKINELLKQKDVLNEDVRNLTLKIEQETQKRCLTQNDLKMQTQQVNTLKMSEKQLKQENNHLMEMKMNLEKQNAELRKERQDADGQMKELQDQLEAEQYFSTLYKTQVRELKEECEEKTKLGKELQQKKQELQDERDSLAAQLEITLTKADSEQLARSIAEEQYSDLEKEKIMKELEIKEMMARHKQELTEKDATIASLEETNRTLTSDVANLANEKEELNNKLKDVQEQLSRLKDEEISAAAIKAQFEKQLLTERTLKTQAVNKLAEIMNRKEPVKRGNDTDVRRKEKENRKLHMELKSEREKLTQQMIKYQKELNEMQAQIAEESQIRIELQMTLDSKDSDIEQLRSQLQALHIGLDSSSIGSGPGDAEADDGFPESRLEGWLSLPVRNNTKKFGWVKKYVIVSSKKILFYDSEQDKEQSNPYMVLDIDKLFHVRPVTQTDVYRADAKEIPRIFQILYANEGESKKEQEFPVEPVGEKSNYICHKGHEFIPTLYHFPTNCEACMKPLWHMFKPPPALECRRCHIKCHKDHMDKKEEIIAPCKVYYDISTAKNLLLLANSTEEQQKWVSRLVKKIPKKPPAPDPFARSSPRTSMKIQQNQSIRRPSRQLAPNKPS
pKi: −log10 of the molar value.

Consider the following illustrative entries.
CN1CCC(NC(=O)[C@@H](N)Cc2ccc(Oc3ccnc4[nH]cc(C5CC5)c34)c(F)c2)CC1 [Example 40] = > 8.52
Cc1c[nH]c2nccc(Oc3ccc(C[C@H](N)C(=O)NC4CCCN(C)C4)cc3F)c12 (single isomer, unassigned) [Example 18] = 7.52 to 8.52
Cc1c[nH]c2nccc(Oc3ccc(C[C@H](N)C(=O)NC4(C(N)=O)CCC4)cc3F)c12 [Example 27] = > 8.52
Cc1c[nH]c2nccc(Oc3ccc(C[C@H](N)C(=O)N4CCc5cncnc5C4)cc3F)c12 [Example 23] = > 8.52

I'm hoping you can list pKi for every compound here, please.
1. CNC(=O)C1(NC(=O)[C@@H](N)Cc2ccc(Oc3ccnc4[nH]cc(C)c34)c(F)c2)CCCC1 [Example 28]
2. COCCNC(=O)C1(NC(=O)[C@@H](N)Cc2ccc(Oc3ccnc4[nH]cc(C)c34)c(F)c2)CCCCC1 [Example 43]
3. Cc1c[nH]c2nccc(Oc3ccc(C[C@H](N)C(=O)NC4CCN(CCCF)CC4)cc3F)c12 [Example 15]

Return:
["> 8.52", "> 8.52", "> 8.52"]

Lab note: each compound below needs its pKi filled in.
1. Cc1c[nH]c2ncnc(Oc3ccc(C[C@H](N)C(=O)NC4(CO)CCOCC4)cc3F)c12 [Example 36]
2. Cc1c[nH]c2ncnc(Oc3c(F)cc(C[C@H](N)C(=O)N4CCC(S(=O)(=O)c5ccccc5)CC4)cc3F)c12 [Example 41]
3. Cc1c[nH]c2nccc(Oc3ccc(C[C@H](N)C(=O)NC4CCN(C)CC4(C)C)cc3F)c12 (single isomer, unassigned) [Example 8b]

Return:
1. > 8.52
2. > 8.52
3. > 8.52

For each of the compounds below, state pKi.
1. CNC(=O)C1(NC(=O)[C@@H](N)Cc2ccc(Oc3ccnc4[nH]cc(C)c34)c(F)c2)CCCCC1 [Example 29]
2. Cc1c[nH]c2nccc(Oc3ccc(C[C@H](N)C(=O)NC4CCN(C5COC5)CC4)cc3F)c12 [Example 3]
3. Cc1c[nH]c2ncnc(Oc3ccc(C[C@H](N)C(=O)NC4(CO)CCCCC4)cc3F)c12 [Example 35]

Return:
["> 8.52", "> 8.52", "> 8.52"]

* * *

molecular target: UniProt:Q13464
pKi: −log10 of the molar value.
property.measured: pKi

Cc1c[nH]c2nccc(Oc3ccc(C[C@H](N)C(=O)N4CCN(C)CC45CC5)cc3F)c12 = 7.52 to 8.52

Need pKi for each of these compounds.
1. Cc1c[nH]c2nccc(Oc3ccc(C[C@H](N)C(=O)NC4CCN(CCCF)CC4)cc3F)c12
2. CNC(=O)C1(NC(=O)[C@@H](N)Cc2ccc(Oc3ccnc4[nH]cc(C)c34)c(F)c2)CCCC1

Return:
["> 8.52", "> 8.52"]

Hello, I would appreciate it if you could give pKi for each entry below.
1. Cc1c[nH]c2nccc(Oc3ccc(C[C@H](N)C(=O)NC4CCN(C5COC5)CC4)cc3F)c12
2. Cc1c[nH]c2ncnc(Oc3ccc(C[C@H](N)C(=O)NC4CCN(C5CC5)CC4)cc3F)c12
3. Cc1c[nH]c2nccc(Oc3ccc(C[C@H](N)C(=O)NC4(CO)CCC4)cc3F)c12
4. Cc1c[nH]c2ncnc(Oc3ccc(C[C@H](N)C(=O)NC4(C(N)=O)CCCCC4)cc3F)c12
5. Cc1c[nH]c2ncnc(Oc3ccc(C[C@H](N)C(=O)NC4(CO)CCOCC4)cc3F)c12
6. CN1CCC(NC(=O)[C@@H](N)Cc2ccc(Oc3ccnc4[nH]cc(C5CC5)c34)c(F)c2)CC1
7. COCCN1CCC(NC(=O)[C@@H](N)Cc2ccc(Oc3ccnc4[nH]cc(C)c34)c(F)c2)CC1
8. Cc1c[nH]c2ncnc(Oc3ccc(C[C@H](N)C(=O)NC4(CO)CCCCC4)cc3F)c12

Return:
["> 8.52", "> 8.52", "> 8.52", "7.52 to 8.52", "7.52 to 8.52", "> 8.52", "> 8.52", "> 8.52"]

Enquiry: # get_value(readout='pKi', item= Cc1c[nH]c2nccc(Oc3ccc(C[C@H](N)C(=O)N4C[C@@H]5C[C@H]4CN5C4CC4)cc3F)c12 )
Return: > 8.52
